# ASSAY OVERVIEW: Primary qHTS for Vero E6 cytotoxicity: counterscreen for inhibitors of SARS-S pseudo-typed particle cell entry (AID 1479150)
# RUN PARAMETERS: cell viability; series mostly up to 57.1 µM
Records with an inconclusive call do not appear. Calls of active or inactive are those of the source. Calls follow the shape of the full dose curve.
MEASUREMENT NAME: outcome

{"columns": ["COMPOUND", "MEASUREMENT NAME", "RESULT"],
 "data": [
  ["C[C@@H]1CCN(C(=O)[C@H](CCCN=C(N)N)NS(=O)(=O)c2cccc3c2NC[C@H](C)C3)[C@@H](C(=O)O)C1", "outcome", "inactive"],
  ["COP(=O)(OC)OC=C(Cl)Cl", "outcome", "inactive"],
  ["COc1ccc2cc3[n+](cc2c1OC)CCc1cc2c(cc1-3)OCO2", "outcome", "inactive"],
  ["CCCCCCCCCCCCCCCCC(C(=O)O)C(O)(CC(=O)O)C(=O)O (stereo not given)", "outcome", "inactive"],
  ["CCN(CCCCOC(=O)c1ccc(OC)c(OC)c1)C(C)Cc1ccc(OC)cc1 (stereo not given)", "outcome", "inactive"],
  ["C(=C\\c1ccccc1)/CN1CCN(C(c2ccccc2)c2ccccc2)CC1", "outcome", "inactive"],
  ["CN1CCC(=C2c3ccccc3CC(=O)c3sccc32)CC1", "outcome", "inactive"],
  ["C[C@]12CC[C@H](O)CC1=CC[C@@H]1[C@@H]2CC[C@]2(C)C(=O)CC[C@@H]12", "outcome", "inactive"],
  ["CN(C)CCCOc1nn(Cc2ccccc2)c2ccccc12", "outcome", "inactive"],
  ["OCc1cc(C(O)CNCCCCCCOCCCCc2ccccc2)ccc1O (stereo not given)", "outcome", "inactive"]
]}

Taken from PubChem BioAssay (NCATS).
